Taken from patent US20030232887A1.

# assay: Solubility of the allosteric effector compound in water and stabilizing agent solutions
# Assay type: physicochemical
# test conditions: pH 7, aqueous buffer; pH of 7; read-out: solubility
reported metric: solubility

// query So what's the measured solubility for this one? Cc1cc(C)cc(NC(=O)Cc2ccc(OC(C)(C)C(=O)[O-])cc2)c1.[Na+]
// result ~50 mg/mL

----------
# assay: Solubility of the allosteric effector compound in water and stabilizing agent solutions
# Type: physicochemical
# test conditions: in water, 23° C.; read-out: solubility
reported metric: solubility

// query Value lookup for solubility; key = Cc1cc(C)cc(NC(=O)Cc2ccc(OC(C)(C)C(=O)O)cc2)c1
// result ~44 mg/mL
